Target or test system: human TACE (Homo sapiens (Human))
Sequence (P78536 whole entry, looked up, change not shown): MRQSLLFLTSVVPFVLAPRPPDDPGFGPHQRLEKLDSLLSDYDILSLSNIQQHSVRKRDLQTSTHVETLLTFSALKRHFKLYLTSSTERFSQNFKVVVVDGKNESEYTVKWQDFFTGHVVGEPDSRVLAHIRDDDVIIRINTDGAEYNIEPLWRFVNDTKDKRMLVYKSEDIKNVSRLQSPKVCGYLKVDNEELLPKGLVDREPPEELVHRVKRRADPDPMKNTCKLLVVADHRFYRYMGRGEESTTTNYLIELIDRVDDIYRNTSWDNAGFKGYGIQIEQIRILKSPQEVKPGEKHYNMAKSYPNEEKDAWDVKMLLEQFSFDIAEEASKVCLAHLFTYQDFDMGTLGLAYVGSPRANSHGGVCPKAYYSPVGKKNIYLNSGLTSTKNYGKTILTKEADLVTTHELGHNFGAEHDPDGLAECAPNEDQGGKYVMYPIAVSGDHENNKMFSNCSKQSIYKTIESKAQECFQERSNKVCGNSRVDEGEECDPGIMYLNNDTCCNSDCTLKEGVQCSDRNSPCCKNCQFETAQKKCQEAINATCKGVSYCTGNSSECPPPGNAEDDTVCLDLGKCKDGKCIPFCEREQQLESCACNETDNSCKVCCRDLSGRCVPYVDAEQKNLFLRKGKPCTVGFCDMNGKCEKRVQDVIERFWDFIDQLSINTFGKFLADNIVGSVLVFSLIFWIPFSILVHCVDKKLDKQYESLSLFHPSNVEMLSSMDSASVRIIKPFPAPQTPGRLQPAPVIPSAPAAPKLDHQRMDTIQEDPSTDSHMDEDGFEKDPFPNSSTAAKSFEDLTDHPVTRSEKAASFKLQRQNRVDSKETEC
Measurement conditions: read-out: TACE potency IC50
Reported metric: IC50

{"columns": ["Compound", "Reported metric", "Readout value"],
 "data": [
  ["O=C1NC(=O)C(CCC(=O)N2CCN(c3cccc(Cl)c3)CC2)(C2CC2)N1 (centres unmarked) [compound 34]", "IC50", "> 4 µM"],
  ["CC1(CCC(=O)N2CCN(c3cncc(Cl)c3)CC2)NC(=O)NC1=O (centres unmarked) [compound 85]", "IC50", "> 4 µM"],
  ["C[C@H]1CN(C(=O)C(CO)CC2(C)NC(=O)NC2=O)CCN1c1cccc(F)c1 (some centres unmarked) [Cpd 268]", "IC50", "> 4 µM"]
]}

I would be grateful if you could provide IC50 for each of the following entries.
1. CC(CC1(C2CC2)NC(=O)NC1=O)C(=O)N1CCN(c2ccc(Cl)cc2)[C@@H](C)C1 (some centres unmarked) [compound 193]
2. CCC1(CC(C)C(=O)N2CCN(c3ccc(F)c(Cl)c3)[C@@H](C)C2)NC(=O)NC1=O (some centres unmarked) [compound 444]
3. C[C@H]1CN(C(=O)CCC2(c3cccnc3)NC(=O)NC2=O)CCN1c1ccc(F)c(Cl)c1 (some centres unmarked) [compound 316]
4. NCC1(CCC(=O)N2CCN(c3cc(Cl)cc(Cl)c3)CC2)NC(=O)NC1=O (centres unmarked) [compound 180]
5. C[C@H]1CN(C(=O)CCC2(C3CC3)NC(=O)NC2=O)CCN1c1ccc(Cl)c(Cl)c1 (some centres unmarked) [compound 408]
6. C[C@@H](C[C@@]1(C)NC(=O)NC1=O)C(=O)N1CCN(c2cc(F)cc(-c3cn[nH]c3)c2)[C@@H](C)C1 [compound 375]
7. C[C@@H](C[C@@]1(C2CC2)NC(=O)NC1=O)C(=O)N1CCN(c2ccc(F)c(-c3cn[nH]c3)c2)[C@@H](C)C1 [compound 378]

Found:
1: > 20 µM; 2: > 4 µM; 3: > 4 µM; 4: > 4 µM; 5: > 4 µM; 6: 1.13 µM; 7: > 4 µM

* * *

Target or test system: human MMP14 (Homo sapiens (Human), UniProt P50281)
Reported metric: IC50

{"columns": ["Compound", "Readout value"],
 "data": [
  ["C[C@H]1CN(C(=O)CC[C@@]2(C3CC3)NC(=O)NC2=O)CCN1c1cccc(F)c1", "> 4 µM"]
]}

For every listed record, write down its IC50.
1. Cc1ccc(Cl)cc1N1CCN(C(=O)CCC2(C3CC3)NC(=O)NC2=O)CC1 (stereo not shown)
2. C[C@H]1CN(C(=O)CCC2(c3ccncc3)NC(=O)NC2=O)CCN1c1ccc(F)c(Cl)c1 (stereo partly shown)
3. Cc1ccccc1N1CCN(C(=O)CC[C@@]2(c3ccccc3)NC(=O)NC2=O)CC1

Found:
> 20 µM
> 4 µM
> 20 µM

* * *

# log10(IC50) measurements, system: rnADAMTS-5 (1-564-6H) (Rattus norvegicus, UniProt Q6TY19)
Reminder: these figures are log10 of reported IC50, in nM before transformation.

# annotated cases, reported log10(IC50) shown
{"columns": ["Compound", "log10(IC50)"],
 "data": [
  ["C[C@]1(CCC(=O)N2CCN(c3cc(Cl)cc(Cl)c3)CC2)NC(=O)NC1=O", 2.10],
  ["Cc1ccc(Cl)cc1N1CCN(C(=O)CCC2(C3CC3)NC(=O)NC2=O)CC1 (centres unmarked)", 1.46]
]}

List the reported log10(IC50) of each compound below.
1. O=C1NC(=O)C(CCC(=O)N2CCN(c3cccc(Cl)c3)CC2)(C2CCC2)N1 (centres unmarked)
2. CC1(CCC(=O)N2CCN(c3ccc(Cl)cc3)CC2)NC(=O)NC1=O (centres unmarked)
3. Cc1ccccc1N1CCN(C(=O)CCC2(c3ccc(OCCN(C)C)cc3)NC(=O)NC2=O)CC1 (centres unmarked)

Found:
[2.31, 2.56, 2.92]

* * *

These records show pIC50 for rnADAMTS-5 (1-564-6H) (Rattus norvegicus, UniProt Q6TY19).
One number for each entry, as −log10 of the molar value.

Answered examples (10):
{"columns": ["Compound", "pIC50"],
 "data": [
  ["Cc1ccc(Cl)cc1N1CCN(C(=O)CCC2(C(C)C)NC(=O)NC2=O)CC1 (stereo not shown)", 6.75],
  ["O=C1NC(=O)C(CCC(=O)N2CCN(c3ccc(Cl)c(F)c3)CC2)(c2ccccc2)N1 (stereo not shown)", 7.39],
  ["Cc1cccc(N2CCN(C(=O)CCC3(C4CC4)NC(=O)NC3=O)CC2)c1C (stereo not shown)", 6.93],
  ["C[C@H]1CN(C(=O)CCC2(C)NC(=O)NC2=O)CCN1c1cc(F)cc(Cl)c1 (stereo partly shown)", 6.61],
  ["C[C@H]1CN(C(=O)CCC2(c3cocn3)NC(=O)NC2=O)CCN1c1cc(F)cc(Cl)c1 (stereo partly shown)", 7.13],
  ["COc1ccccc1C1(CCC(=O)N2CCN(c3cccc(Cl)c3)CC2)NC(=O)NC1=O (stereo not shown)", 6.88],
  ["C[C@H]1CN(C(=O)CCC2(C3CC3)NC(=O)NC2=O)CCN1c1ccc(F)c(F)c1 (stereo partly shown)", 7.43],
  ["CC1(CCC(=O)N2CCN(c3ccc(Cl)c(F)c3)CC2)NC(=O)NC1=O (stereo not shown)", 6.85],
  ["Cc1ccc(Cl)cc1N1CCN(C(=O)CCC2(C3CCCC3)NC(=O)NC2=O)CC1 (stereo not shown)", 6.52],
  ["Cc1ccccc1N1CCN(C(=O)CCC2(c3cccnc3)NC(=O)NC2=O)CC1 (stereo not shown)", 6.78]
]}

Please state, for each entry, its recorded pIC50.
1. Cc1ccc(F)cc1N1CCN(C(=O)CCC2(C)NC(=O)NC2=O)C[C@@H]1C (stereo partly shown)
2. O=C1NC(=O)C(CCC(=O)N2CCN(c3ccc(F)c(F)c3)CC2)(c2cccnc2)N1 (stereo not shown)
3. O=C1NC(=O)C(CCC(=O)N2CCN(c3ccc(Cl)cc3)CC2)(c2ccccc2)N1 (stereo not shown)
4. COCCN(C)CC1(CCC(=O)N2CCN(c3cccc(Cl)c3)CC2)NC(=O)NC1=O (stereo not shown)
5. Cc1ccc(Cl)cc1N1CCN(C(=O)CCC2(c3ccccc3)NC(=O)NC2=O)CC1 (stereo not shown)

Found:
1: 6.25; 2: 7.15; 3: 7.00; 4: 6.29; 5: 6.88

Give measured pIC50 for every item shown.
1. Cc1cccc(C)c1N1CCN(C(=O)CCC2(c3ccccc3)NC(=O)NC2=O)CC1 (stereo not shown)
2. Cc1c(Cl)cccc1N1CCN(C(=O)CCC2(c3cccnc3)NC(=O)NC2=O)CC1 (stereo not shown)
3. Cc1ccc(C2(CCC(=O)N3CCN(c4cc(Cl)ccc4C)CC3)NC(=O)NC2=O)cc1 (stereo not shown)
4. CC(CC1(C2CC2)NC(=O)NC1=O)C(=O)N1CCN(c2cncc(Cl)c2)[C@@H](C)C1 (stereo partly shown)

Found:
1. 5.41
2. 7.03
3. 6.77
4. 7.47

Go through the items and report each one's pIC50.
1. Cc1c(F)cccc1N1CCN(C(=O)CCC2(c3ccccn3)NC(=O)NC2=O)CC1 (stereo not shown)
2. CC(CC1NC(=O)NC1=O)C(=O)N1CCN(c2cc(Cl)cc(Cl)c2)CC1 (stereo not shown) [compound 200]

Found:
1: 6.79; 2: 6.87

* * *

Target or test system: rnADAMTS-5 (1-564-6H) (Rattus norvegicus)
pIC50: −log10 of the molar value.
Classify as follows. Reported pIC50 greater than or equal to 7: Yes. Reported pIC50 below: No.

Lookup: # check: pIC50 of Cc1ccc(Cl)cc1N1CCN(C(=O)CCC2(C(C)(C)C)NC(=O)NC2=O)CC1 (stereo not drawn) is greater than or equal to 7
Found: No

Lookup: Given the entry CC(CC1(CCS(C)(=O)=O)NC(=O)NC1=O)C(=O)N1CCN(c2cc(Cl)cc(Cl)c2)CC1 (stereo not drawn) , answer whether its pIC50 meets or surpasses 7.
Found: Yes

Lookup: // inclusive: pIC50 at least 7? input: Cc1ccccc1N1CCN(C(=O)CCC2(C)NC(=O)NC2=O)CC1 (stereo not drawn)
Found: No

Lookup: Please check the record Cc1c(Cl)cc(Cl)cc1N1CCN(C(=O)CCC2(C3CC3)NC(=O)NC2=O)C[C@@H]1C (stereo partly drawn) and state if its pIC50 is at or above 7.
Found: Yes

Lookup: Does pIC50 meet or surpass 7 for CC(CC1(C2CCOCC2)NC(=O)NC1=O)C(=O)N1CCN(c2cc(Cl)cc(Cl)c2)CC1 (stereo not drawn) ?
Found: Yes

Lookup: Does C[C@H]1CN(C(=O)CCC2(c3cccnc3)NC(=O)NC2=O)CCN1c1ccccc1 (stereo partly drawn) have a reported pIC50 of at least 7?
Found: No

Lookup: Kindly determine if pIC50 recorded for O=C1NC(=O)C(CCC(=O)N2CCN(c3ccc4ccccc4c3)CC2)(c2ccccc2)N1 (stereo not drawn) is above or exactly 7.
Found: No

Lookup: For this compound, is measured pIC50 7 or higher? C[C@H]1CN(C(=O)CCC2(C3CC3)NC(=O)NC2=O)CCN1c1ccc(Cl)c(Cl)c1 (stereo partly drawn)
Found: Yes

Lookup: Kindly determine if pIC50 recorded for CC(CC1(C)NC(=O)NC1=O)C(=O)N1CCN(c2cccc(F)c2)[C@@H](C)C1 (stereo partly drawn) is above or exactly 7.
Found: Yes
